FYI, the data here is from patent US6436939B2.

Overview of recorded melting point for various compounds
Where a name gives a salt, the structure may show the parent alone.

Study these solved cases before continuing.
* C(=C\c1nc2ccccc2o1)/c1ccc(OCCCCN2CCCCC2)cc1 (as salt: HCl) [Example 6] | 230 to 232 °C
* C(=C\c1nc2ccccc2o1)/c1ccc(OCCCCN2CCCC2)cc1 (as salt: HCl) [Example 9] | 229 to 232 °C
* C(=C\c1nc2ccccc2s1)/c1ccc(OCCCN2CCCCC2)cc1 (as salt: HCl) [Example 3] | 215 to 217 °C
* CCN(CC)CCCCOc1ccc(/C=C/c2nc3ccccc3o2)cc1 (as salt: HCl) [Example 7] | 219 to 220 °C
* C(=C\c1nc2ccccc2o1)/c1ccc(OCCCN2CCCCC2)cc1 (as salt: HCl) [Example 4] | 127 to 128 °C

Report melting point for CCCN(CCC)CCCOc1ccc(-c2nc3ccccc3s2)cc1 (as salt: HCl) [Example 11] please. 142 to 143 °C

For the compound shown here, CCN(CC)CCCOc1ccc(/C=C/c2nc3ccccc3o2)cc1 (as salt: HCl) [Example 8] , give the reported melting point. 225 to 226 °C
